tested target: CDK2/cyclin A (Homo sapiens, UniProt P20248)
assay info: Functional kinase assay (phosphorylation of GST-pRb(773-928))
Format: biochemical
assay conditions: recombinant human CDK2/cyclin A; GST-pRb(773-928) substrate; 100 μM ATP; 30 min at 30° C.; read-out: Inhibitory activity IC50 ± SD, Functional kinase assay
Experimental: CDK2/cyclin A kinase assays (phosphorylation of natural retinoblastoma protein (pRb)) were performed in 96-well plates using recombinant proteins. […] Incorporated radioactivity was measured using a scintillation counter (TopCount, Packard Instruments, Pangbourne, Berks, UK). Half-maximal inhibition (IC50) was calculated from dose—response curves.
pIC50: −log10 of the molar value. Non-standard residues stand in square brackets, D forms with d. Residues, ends and D or L forms follow the SMILES beside them. *: point of attachment. X8 = COc1cc(-n2nc(C(=O)*)nc2C)c(Cl)cc1Cl; Phe(4-F) = N[C@@H](Cc1ccc(F)cc1)C(=O)O
assay endpoint: pIC50

1. CC(C)C[C@@H](CNc1cccc(Oc2ccccc2)c1)NC(=O)[C@H](CCCNC(=N)N)NC(=O)[C@@H](N)CCCNC(=N)N [Compound 29] : 5.07

(P) COc1cc(-n2nc(C(=O)N[C@@H](CCCNC(=N)N)C(=O)N[C@@H](CC(C)C)C(=O)N[C@@H](CC(N)=O)C(=O)N[C@@H](Cc3ccc(F)cc3)C(N)=O)nc2C)c(Cl)cc1Cl [Compound 2] (X8-RLN[Phe(4-F)]-NH2)
(Q) Cc1cc(NC(=O)C2CCCCC2C(=O)N[C@@H](CC(C)C)C(=O)N[C@@H](CC(N)=O)C(=O)N[C@@H](Cc2ccc(F)cc2)C(N)=O)no1 (stereo partly drawn) [Compound 15]
Request: For this pair, P and Q , which shows a numerically higher pIC50? Answer by stating the label of the chosen item.
Result: P

====

tested target: CDK2/cyclin A (Homo sapiens, UniProt P20248)
assay info: Functional kinase assay (phosphorylation of GST-pRb(773-928))
Type: biochemical
assay conditions: recombinant human CDK2/cyclin A; GST-pRb(773-928) substrate; 100 μM ATP; 30 min at 30° C.; read-out: Inhibitory activity IC50 ± SD, Functional kinase assay
Description: CDK2/cyclin A kinase assays (phosphorylation of natural retinoblastoma protein (pRb)) were performed in 96-well plates using recombinant proteins. […] Incorporated radioactivity was measured using a scintillation counter (TopCount, Packard Instruments, Pangbourne, Berks, UK). Half-maximal inhibition (IC50) was calculated from dose—response curves.
Non-standard residues stand in square brackets, D forms with d. Residues, ends and D or L forms follow the SMILES beside them. *: point of attachment. Phe(4-F) = N[C@@H](Cc1ccc(F)cc1)C(=O)O; X7 = O=C(c1ccc2nc(-n3cccc3)sc2c1)*; X12 = O=C(c1ccc(N2CCNC2=S)cc1)*
assay endpoint: IC50 (µM)

1. CC(C)C[C@H](NC(=O)[C@H](CCCNC(=N)N)NC(=O)c1ccc2nc(-n3cccc3)sc2c1)C(=O)N[C@@H](CC(N)=O)C(=O)N[C@@H](Cc1ccc(F)cc1)C(N)=O [Compound 12] (X7-RLN[Phe(4-F)]-NH2) : 15.3
2. CC(C)C[C@H](NC(=O)[C@H](CCCNC(=N)N)NC(=O)[C@@H](N)CCCNC(=N)N)C(=O)Nc1cccc(Oc2ccccc2)c1 : 21.9
3. CC(C)C[C@H](NC(=O)[C@H](CCCNC(=N)N)NC(=O)c1ccc(N2CCNC2=S)cc1)C(=O)N[C@@H](CC(N)=O)C(=O)N[C@@H](Cc1ccc(F)cc1)C(N)=O [Compound 5] (X12-RLN[Phe(4-F)]-NH2) : 19

====

tested target: CDK2/cyclin A (Homo sapiens)
assay info: Functional kinase assay (phosphorylation of GST-pRb(773-928))
Assay type: biochemical
assay conditions: recombinant human CDK2/cyclin A; GST-pRb(773-928) substrate; 100 μM ATP; 30 min at 30° C.; read-out: Inhibitory activity IC50 ± SD, Functional kinase assay
pIC50: −log10 of the molar value. Non-standard residues stand in square brackets, D forms with d. Residues, ends and D or L forms follow the SMILES beside them. *: point of attachment. X14 = O=C(c1ccc(-n2cncn2)c([N+](=O)[O-])c1)*; X10 = O=C(c1c(-c2ccccc2)nc2cccc(Cl)n12)*; X11 = Cc1nc(C(=O)*)nn1-c1cc(Cl)cc(Cl)c1; Phe(4-F) = N[C@@H](Cc1ccc(F)cc1)C(=O)O
assay endpoint: pIC50

(a) CC(C)C[C@H](NC(=O)[C@H](CCCNC(=N)N)NC(=O)[C@@H](N)CCCNC(=N)N)C(=O)NCc1cccc(Oc2ccccc2)c1
(b) CC(C)C[C@H](NC(=O)[C@H](CCCNC(=N)N)NC(=O)c1ccc(-n2cncn2)c([N+](=O)[O-])c1)C(=O)N[C@@H](CC(N)=O)C(=O)N[C@@H](Cc1ccc(F)cc1)C(N)=O [Compound 8] (X14-RLN[Phe(4-F)]-NH2)
Request: Hi, I'm comparing two records. Which one has the lower pIC50, a or b ? Return value: the label identifying the chosen record.
Result: b
(b: 4.59, a: 5.06)

(A) CC(C)C[C@@H](CNc1cccc(OCc2ccccc2)c1)NC(=O)[C@H](CCCNC(=N)N)NC(=O)[C@@H](N)CCCNC(=N)N
(B) Cc1nc(C(=O)N[C@@H](CCCNC(=N)N)C(=O)N[C@@H](CC(C)C)C(=O)N[C@@H](CC(N)=O)C(=O)N[C@@H](Cc2ccc(F)cc2)C(N)=O)nn1-c1cc(Cl)cc(Cl)c1 [Compound 10] (X11-RLN[Phe(4-F)]-NH2)
(C) CC(C)C[C@H](NC(=O)[C@H](CCCNC(=N)N)NC(=O)c1c(-c2ccccc2)nc2cccc(Cl)n12)C(=O)N[C@@H](CC(N)=O)C(=O)N[C@@H](Cc1ccc(F)cc1)C(N)=O [Compound 1] (X10-RLN[Phe(4-F)]-NH2)
Request: List the 3 entries from lowest pIC50 to highest pIC50 value. # list labels per requested ordering
Result: C, A, B

====

tested target: CDK2/cyclin A (Homo sapiens, UniProt P20248)
assay info: Functional kinase assay (phosphorylation of GST-pRb(773-928))
Format: biochemical
assay conditions: recombinant human CDK2/cyclin A; GST-pRb(773-928) substrate; 100 μM ATP; 30 min at 30° C.; read-out: Inhibitory activity IC50 ± SD, Functional kinase assay
pIC50: −log10 of the molar value. Non-standard residues stand in square brackets, D forms with d. Residues, ends and D or L forms follow the SMILES beside them. *: point of attachment. X4 = Cc1nc(C(=O)*)nn1-c1cccc(C(F)(F)F)c1; Phe(4-F) = N[C@@H](Cc1ccc(F)cc1)C(=O)O; X9 = O=C(COn1c(-c2ccccc2)nc2ccccc21)*
assay endpoint: pIC50

(1) CC(C)C[C@H](NC(=O)[C@H](CCCNC(=N)N)NC(=O)COn1c(-c2ccccc2)nc2ccccc21)C(=O)N[C@@H](CC(N)=O)C(=O)N[C@@H](Cc1ccc(F)cc1)C(N)=O [Compound 9] (X9-RLN[Phe(4-F)]-NH2)
(2) Cc1nc(C(=O)N[C@@H](CCCNC(=N)N)C(=O)N[C@@H](CC(C)C)C(=O)N[C@@H](CC(N)=O)C(=O)N[C@@H](Cc2ccc(F)cc2)C(N)=O)nn1-c1cccc(C(F)(F)F)c1 [Compound 14] (X4-RLN[Phe(4-F)]-NH2)
Request: Which entry has a larger number for pIC50, 1 or 2 ? Answer with the label corresponding to your selection.
Result: 2

====

tested target: CDK2/cyclin A (Homo sapiens, UniProt P20248)
assay info: Functional kinase assay (phosphorylation of GST-pRb(773-928))
Assay type: biochemical
assay conditions: recombinant human CDK2/cyclin A; GST-pRb(773-928) substrate; 100 μM ATP; 30 min at 30° C.; read-out: Inhibitory activity IC50 ± SD, Functional kinase assay
pIC50: −log10 of the molar value. Non-standard residues stand in square brackets, D forms with d. Residues, ends and D or L forms follow the SMILES beside them. *: point of attachment. X6 = O=C(COn1c(-c2ccccc2)nc2ccc(Cl)cc21)*; Phe(4-F) = N[C@@H](Cc1ccc(F)cc1)C(=O)O; X5 = Cc1nc(C(=O)*)nn1-c1ccc(Cl)cc1
assay endpoint: pIC50

1. CC(C)C[C@H](NC(=O)[C@H](CCCNC(=N)N)NC(=O)COn1c(-c2ccccc2)nc2ccc(Cl)cc21)C(=O)N[C@@H](CC(N)=O)C(=O)N[C@@H](Cc1ccc(F)cc1)C(N)=O [Compound 11] (X6-RLN[Phe(4-F)]-NH2) : 4.52

(P) CC(C)C[C@H](NC(=O)[C@H](CCCNC(=N)N)NC(=O)[C@@H](N)CCCNC(=N)N)C(=O)Nc1cccc(OCc2ccccc2)c1
(Q) Cc1nc(C(=O)N[C@@H](CCCNC(=N)N)C(=O)N[C@@H](CC(C)C)C(=O)N[C@@H](CC(N)=O)C(=O)N[C@@H](Cc2ccc(F)cc2)C(N)=O)nn1-c1ccc(Cl)cc1 [Compound 3] (X5-RLN[Phe(4-F)]-NH2)
Request: Compare reported pIC50 values for P and Q . Which is lower? Answer = label.
Result: P

Attribution: patent US20060281687A1
